System: optoTopBP1 Flp-In 293 T-REx (HEK293) cells
Test: light-induced TopBP1 condensate (nuclear foci) count, plate-normalised robust z-score vs non-control wells; higher = more TopBP1 condensates (negative = condensation inhibitor), active = hit call of the paper
Settings: 10 µM; incubation time 2 h
Counter-ions that a name gives are not always drawn. The whole screen tested about 1,500 compounds, of which about 30 (2%) showed activity.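 How the source made its calls: active = robust z-score below -2; a few such results were not called.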 The list comes from a sample in which actives are over-represented; it also holds close analogues and randomly drawn compounds.
Outcome codes: 1 (yes) = active, 0 (no) = inactive

[
  {
    "Compound": "CCCCCCCCCCCCCCCC[N+](C)(C)CCN(Cc1ccc(OC)cc1)c1ncccn1 [Thonzonium bromide]",
    "Assayed System": "optoTopBP1 Flp-In 293 T-REx (HEK293) cells",
    "Class": "1 (yes)"
  },
  {
    "Compound": "CC(C)=CCC1C(=O)N(c2ccccc2)N(c2ccccc2)C1=O",
    "Assayed System": "optoTopBP1 Flp-In 293 T-REx (HEK293) cells",
    "Class": "0 (no)"
  },
  {
    "Compound": "O=C(c1cc(O)c(O)c(O)c1)c1ccc(O)c(O)c1O",
    "Assayed System": "optoTopBP1 Flp-In 293 T-REx (HEK293) cells",
    "Class": "0 (no)"
  },
  {
    "Compound": "COc1ccc(CN(CCN(C)C)c2ccccn2)cc1 [Pyrilamine maleate]",
    "Assayed System": "optoTopBP1 Flp-In 293 T-REx (HEK293) cells",
    "Class": "0 (no)"
  },
  {
    "Compound": "C=C1C[C@H]2[C@@H]3C=C(C)C4=CC(=O)CC[C@]4(C)[C@H]3CC[C@]2(C)[C@@]1(OC(C)=O)C(C)=O [Melengestrol acetate]",
    "Assayed System": "optoTopBP1 Flp-In 293 T-REx (HEK293) cells",
    "Class": "0 (no)"
  },
  {
    "Compound": "CCCNC(C)(C)C(=O)Nc1ccccc1C",
    "Assayed System": "optoTopBP1 Flp-In 293 T-REx (HEK293) cells",
    "Class": "0 (no)"
  },
  {
    "Compound": "O=C1c2cccc(O)c2C(=O)c2c(O)cccc21 [1,8-Dihydroxyanthraquinone]",
    "Assayed System": "optoTopBP1 Flp-In 293 T-REx (HEK293) cells",
    "Class": "1 (yes)"
  },
  {
    "Compound": "COc1ccc(C(=O)c2ccc(C)cc2)c(O)c1",
    "Assayed System": "optoTopBP1 Flp-In 293 T-REx (HEK293) cells",
    "Class": "0 (no)"
  },
  {
    "Compound": "CN(C)CCN(Cc1ccc(Cl)cc1)c1ccccn1 [Chloropyramine hydrochloride]",
    "Assayed System": "optoTopBP1 Flp-In 293 T-REx (HEK293) cells",
    "Class": "0 (no)"
  }
]

----------
Quick reference: light-induced TopBP1 condensate (z-score) of the listed items.
System: optoTopBP1 Flp-In 293 T-REx (HEK293) cells
Experiment: light-induced TopBP1 condensate (nuclear foci) count, plate-normalised robust z-score vs non-control wells; higher = more TopBP1 condensates (negative = condensation inhibitor), active = hit call of the paper
Conditions: 10 µM; incubation time 2 h
Counter-ions that a name gives are not always drawn. Out of some 1,500 compounds screened, about 30 (2%) showed activity. This is one part of a sample in which actives are shown more often than they occur.
Observation Type: light-induced TopBP1 condensate (z-score)

[
  {
    "Molecule": "O=C1CN2Cc3c(ccc(Cl)c3Cl)N=C2N1 [Anagrelide]",
    "Reported Value": -0.566
  },
  {
    "Molecule": "CCN(CCO)CCCC(C)Nc1ccnc2cc(Cl)ccc12 (stereo not given) [Hydroxychloroquine sulfate]",
    "Reported Value": -1.68
  },
  {
    "Molecule": "Clc1ccc(C(Cn2ccnc2)OCc2csc3c(Cl)cccc23)c(Cl)c1 (stereo not given) [Sertaconazole nitrate]",
    "Reported Value": 0.206
  },
  {
    "Molecule": "CN(C)c1ccc2nc3ccc(=[N+](C)C)cc-3sc2c1 [Methylene blue]",
    "Reported Value": -8.05
  },
  {
    "Molecule": "N=C(N)NCCN1CCCCCCC1 [Guanethidine sulfate]",
    "Reported Value": -0.799
  },
  {
    "Molecule": "C[C@H]1[C@@H](O)O[C@@H]2O[C@@]3(C)CC[C@H]4[C@H](C)CC[C@@H]1[C@@]24OO3 [Artenimol]",
    "Reported Value": 0.222
  },
  {
    "Molecule": "CCOC(=O)[C@H](CCc1ccccc1)N[C@@H](C)C(=O)N(CC(=O)O)C1Cc2ccccc2C1 [Delapril Hydrochloride]",
    "Reported Value": 0.988
  },
  {
    "Molecule": "O=C(O)c1ccccc1Nc1cc(Cl)ccc1C(=O)O [Lobenzarit disodium]",
    "Reported Value": 0.707
  },
  {
    "Molecule": "Cc1onc(-c2ccccc2)c1-c1ccc(S(N)(=O)=O)cc1 [Valdecoxib]",
    "Reported Value": -1.03
  },
  {
    "Molecule": "O=C(O)CCNC(=O)c1ccccc1 [Betamipron]",
    "Reported Value": -0.17
  },
  {
    "Molecule": "NC[C@@H]1O[C@@H](O[C@H]2[C@H](O)[C@@H](O[C@H]3O[C@H](CO)[C@@H](O)[C@H](N)[C@H]3O)[C@H](N)C[C@@H]2N)[C@@H](O)[C@H](O)[C@H]1O [Kanamycin A sulfate]",
    "Reported Value": 0.0568
  },
  {
    "Molecule": "CSc1nc2cc(Cl)c(Oc3cccc(Cl)c3Cl)cc2[nH]1 [Triclabendazole]",
    "Reported Value": -2.43
  },
  {
    "Molecule": "CC(C)(CO)[C@@H](O)C(=O)NCCCC(=O)O [Hopantenate calcium]",
    "Reported Value": 0.00401
  },
  {
    "Molecule": "CC(=O)OCC(=O)[C@@]12OC3(CCCC3)O[C@@H]1C[C@H]1[C@@H]3CCC4=CC(=O)C=C[C@]4(C)[C@@]3(F)[C@@H](O)C[C@@]12C [Amcinonide]",
    "Reported Value": 0.776
  },
  {
    "Molecule": "CCOC(=O)C1=C(COCCN)NC(C)=C(C(=O)OC)C1c1ccccc1Cl (stereo not given) [Amlodipine]",
    "Reported Value": -1.57
  },
  {
    "Molecule": "Oc1ccc(OCc2ccccc2)cc1 [Monobenzone]",
    "Reported Value": -2.29
  },
  {
    "Molecule": "Cc1cccn2c(=O)c(-c3nnn[nH]3)cnc12 [Pemirolast potassium]",
    "Reported Value": 0.448
  },
  {
    "Molecule": "NCCCC(O)(P(=O)(O)O)P(=O)(O)O [Alendronate sodium]",
    "Reported Value": -0.706
  },
  {
    "Molecule": "C=CCOc1ccc(CC(=O)O)cc1Cl [Alclofenac]",
    "Reported Value": 0.0679
  },
  {
    "Molecule": "CO[C@@H]1[C@@H](O[C@@H]2O[C@H](C)[C@@H](O[C@H]3C[C@@](C)(O)[C@@H](O)[C@H](C)O3)[C@H](N(C)C)[C@H]2O)[C@@H](CC=O)C[C@@H](C)[C@@H](O[C@H]2CC[C@H](N(C)C)[C@@H](C)O2)/C=C/C=C/C[C@@H](C)OC(=O)C[C@H]1OC(C)=O [Acetyl spiramycin]",
    "Reported Value": -0.0623
  },
  {
    "Molecule": "CC[N+]1(CC)CCC(=C(c2ccccc2)c2ccccc2)C1C (stereo not given) [Prifinium Bromide]",
    "Reported Value": 1.11
  },
  {
    "Molecule": "CN(C)[C@@H]1C(O)=C(C(=O)NCNCCCC[C@H](N)C(=O)O)C(=O)[C@@]2(O)C(O)=C3C(=O)c4c(O)cccc4[C@@](C)(O)[C@H]3C[C@@H]12 [Lymecycline]",
    "Reported Value": 0.0668
  },
  {
    "Molecule": "Nc1ccn([C@@H]2O[C@H](CO)[C@@H](O)[C@@H]2O)c(=O)n1 [Cytarabine]",
    "Reported Value": -1.9
  },
  {
    "Molecule": "CC(C)(C)C(=O)OCOC(=O)[C@@H]1N2C(=O)[C@@H](/N=C/N3CCCCCC3)[C@H]2SC1(C)C [Pivmecillinam hydrochloride]",
    "Reported Value": 0.64
  },
  {
    "Molecule": "O=C(O)c1cc(/N=N/c2ccc(S(=O)(=O)Nc3ccccn3)cc2)ccc1O [Sulfasalazine]",
    "Reported Value": -0.0783
  },
  {
    "Molecule": "COc1cc(N)cn[n+]1-c1ccccc1 [Amezinium metilsulfate]",
    "Reported Value": 0.428
  },
  {
    "Molecule": "O=C(Cn1cnnn1)N[C@@H]1C(=O)N2C(C(=O)O)=C(CSc3nncs3)CS[C@H]12 [Ceftezole]",
    "Reported Value": -0.707
  },
  {
    "Molecule": "CC[C@H]1OC(=O)[C@H](C)[C@@H](O[C@H]2C[C@@](C)(OC)[C@@H](O)[C@H](C)O2)[C@H](C)[C@@H](O[C@@H]2O[C@H](C)C[C@H](N(C)C)[C@H]2O)[C@](C)(O)C[C@@H](C)/C(=N\\OCOCCOC)[C@H](C)[C@@H](O)[C@]1(C)O [Roxithromycin]",
    "Reported Value": 0.222
  },
  {
    "Molecule": "O=P(O)(O)C(O)(Cc1cccnc1)P(=O)(O)O [Risedronic acid monohydrate]",
    "Reported Value": -0.826
  },
  {
    "Molecule": "CN[C@@H]1[C@H](O[C@H]2[C@H](O[C@H]3[C@H](O)[C@@H](O)[C@H](N=C(N)N)[C@@H](O)[C@@H]3N=C(N)N)O[C@@H](C)[C@]2(O)C=O)O[C@@H](CO)[C@H](O)[C@H]1O [Streptomycin sulfate]",
    "Reported Value": -0.213
  }
]
